Parameter: pIC50. Scope: all listed entries.
TARGET_OF_ASSAY: T1, human IL-17A (human, UniProt Q16552 24-155, biotinylated with Sulfo-NHS-LC-Biotin in the AlphaScreen assays only)
T1 construct: also called hIL-17A; recombinant human IL-17A
EXPERIMENTAL_DETAILS: AlphaScreen competition, hIL-17A - IL-17RC-Fc;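 note: Read-out after 1 h at room temperature with the receptor Fc-fusion, Acceptor beads and streptavidin-coated Donor beads present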
Scale note: pIC50 = -log10(concentration in M).

BINDER	MEAS_VALUE
18B05 (VHH, Class 4 Nanobody (cross-reactive: anti-IL-17A, IL-17F and IL-17A/F); not shown: c-myc, His6 tag) VHH: EVQLVKSGGGLVQPGGSLRLSCAASGGTFSLFAMGWFREAPGKEREFVAAIRWSDGSSYYADSVKGRFTISRDNAKNAVHLQSNSLKSEDTAVYYCYADVQGGLHRYWGQGTQVTVSS	9.39

**Query** // query pIC50 value for entry 13E02 (VHH, Class 4 Nanobody (cross-reactive: anti-IL-17A, IL-17F and IL-17A/F); also called IL17MS13E02; not shown: c-myc, His6 tag) VHH: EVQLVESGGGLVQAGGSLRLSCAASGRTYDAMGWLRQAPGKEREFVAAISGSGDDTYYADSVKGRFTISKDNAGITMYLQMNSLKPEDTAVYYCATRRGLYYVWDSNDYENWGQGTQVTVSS
**Result** 9.73

Entry source: patent US20210130452A1
